Data origin, for the record: the supplement of paper PMC12764529

methodNotes: folding stability dG unfold from trypsin proteolysis; higher = more stable
measurementType: folding stability dG unfold (kcal/mol)

>  <monomerSequence>
SAGGSAGGSAGTITILFKDPEDAIDRIKEFAQKEGYKVKIDEIEYTPNGYVWIDIDIEPPSAGGSAGGSAGG [r11_304_TrROS]

>  <numericReadout>
1.06

$$$$
>  <monomerSequence>
SAGGSAGGSGSMLPITTVTPTPDGVWKITYELPDGSTRTITVPPDDLSLSGPPSSSGSSAALASAGGSAGGS [r20_194_JUSTAS]

>  <numericReadout>
1.28

$$$$
>  <monomerSequence>
SAGGSAGGSAGGKVRVETDPERGYYKVKIRNPNNGRKIKVPVPMDDPKKAKKQAKELAKSAGGSAGGSAGGS [r10_1117_TrROS]

>  <numericReadout>
-0.863

$$$$
>  <monomerSequence>
SAGGMLLVRIRVKLSPEQIKALEEAGFEVVEERDGEVVVRLEVSPEQLEKLKALFPDAEIEVVELPPESAGG [r13_261_TrROS_Hall]

>  <numericReadout>
5.44

$$$$
>  <monomerSequence>
SAGGEEIEAEVVEVRTFTLENGFEVTTTLIRVDGKLILITSVKKTKNGKWEVVEVKELPLEELSPEELSAGG [r13_494_TrROS_Hall]

>  <numericReadout>
3.35

$$$$
>  <monomerSequence>
SAGGKKKITITIEEVEELENGPLVYRVTIEVDGKTYEILIEADSLEEAKAAAEKLAEELNVEVTIEPVSAGG [r13_750_TrROS_Hall]

>  <numericReadout>
2.55

$$$$
>  <monomerSequence>
SAGGETVTITIKVKGKEITVTFNKDTGKVTITDKDTGKTVTITLPAGEEPTLEELLEALKKLGFEIEPSAGG [r13_687_TrROS_Hall]

>  <numericReadout>
4.11

$$$$
